Taken from PubChem BioAssay (NCI).

Measured growth, listed per entry.
Tested on: T-47D breast
test-description: NCI-60 one-dose screen, 48 h (100 = growth as untreated, 0 = no growth, -100 = all killed)
experimental-setup: 10 µM unless noted
Compounds without any hit were thinned out: in the full panel of roughly 83,000, 20% have a hit.
All answers are understood in %, so give the number only.

Worked examples, 4 molecules total:
- molecule: "COc1ccc2c(O)c(/C=C3\\N=Nc4ccccc43)oc2c1C[C@@H]1CCNC[C@H]1F"
  growth [%]: 94.3
- molecule: "CCOC(=O)c1nc(Nc2ccc(NC(=O)Nc3ccc(F)cc3)cc2)c2ccccc2n1"
  growth [%]: 99.2
- molecule: "CN1C(=O)N(C)C2Nn3c(s/c(=C\\c4ccc(C(F)(F)F)cc4)c3=O)=NC21 (stereo not given)"
  growth [%]: 107
- molecule: "O=C1/C(=C/c2ccc(Cl)cc2)COc2ccc(O)c(O)c21"
  growth [%]: -14.8

In plain terms, `Cc1noc(C)c1C(=O)OCc1coc2ccccc2c1=O` has a documented growth of 28
